# Test system: HBV infection of PHH
# Assay Remarks: HBV infection of primary human hepatocytes
# Test Context: read-out: IC50 based on HBeAg measurement; PHH; pooled patient sera (genotypes B and C), MOI 400; day 14 post infection; ELISA; printed with 'about'
pIC50: −log10 of the molar value. Where no end group is shown, it is not given here.
Readout: pIC50

Which pIC50 reading was recorded for the sequence LRNIRLRNIRLRNIRLRNIR [4B10] ?
8.30 to 9.30

FYI, the data here is from paper PMC4935942.
